Test system: 435261-313-R-J1-PDC complex spheroid viability
Experiment: Anticancer human tumor 435261-313-R-J1-PDC patient-derived colon adenocarcinoma cell line growth inhibition [GQUAD]
Conditions: second compound 1 µM; first compound 0.00316 µM; active compounds read low
property: viability, T/C (%)
Reply numerically in %, unit not repeated.

Before answering, review these 5 worked examples.
compound: CC[C@@]1(O)C(=O)OCc2c1cc1n(c2=O)Cc2cc3c(CN(C)C)c(O)ccc3nc2-1 + Cc1cnc(CNC(=O)c2c(=O)c3ccc(N4CCCN(C)CC4)nc3n3c2sc2ccccc23)cn1
viability, T/C / %: 48.8

compound: CCc1c2c(nc3ccc(O)cc13)-c1cc3c(c(=O)n1C2)COC(=O)[C@]3(O)CC + Cc1cnc(CNC(=O)c2c(=O)c3ccc(N4CCCN(C)CC4)nc3n3c2sc2ccccc23)cn1
viability, T/C / %: 35

compound: CCc1c2c(nc3ccc(O)cc13)-c1cc3c(c(=O)n1C2)COC(=O)[C@]3(O)CC + Cc1[nH]c2ccc(F)cc2c1-c1nc2c3cccnc3c3ncccc3c2[nH]1
viability, T/C / %: 55.6

compound: Cn1ncnc1[C@H]1c2n[nH]c(=O)c3cc(F)cc(c23)N[C@@H]1c1ccc(F)cc1 + Cc1[nH]c2ccc(F)cc2c1-c1nc2c3cccnc3c3ncccc3c2[nH]1
viability, T/C / %: 67.9

compound: Cc1[nH]c2ccccc2c1CCNCc1ccc(/C=C/C(=O)NO)cc1 + CN(C)c1ccc(Nc2c3ccc(NC(=O)CCN4CCCC4)cc3nc3cc(NC(=O)CCN4CCCC4)ccc23)cc1
viability, T/C / %: 74.3

Data request: 435261-313-R-J1-PDC complex spheroid viability / viability, T/C / Cn1ncnc1[C@H]1c2n[nH]c(=O)c3cc(F)cc(c23)N[C@@H]1c1ccc(F)cc1 + Cc1cnc(CNC(=O)c2c(=O)c3ccc(N4CCCN(C)CC4)nc3n3c2sc2ccccc23)cn1 : value?
Data returned: 46.8

Data request: Another: Cc1[nH]c2ccccc2c1CCNCc1ccc(/C=C/C(=O)NO)cc1 + Cc1[nH]c2ccc(F)cc2c1-c1nc2c3cccnc3c3ncccc3c2[nH]1
Data returned: 71.7

Data request: Another: CC[C@@]1(O)C(=O)OCc2c1cc1n(c2=O)Cc2cc3c(CN(C)C)c(O)ccc3nc2-1 + CN(C)c1ccc(Nc2c3ccc(NC(=O)CCN4CCCC4)cc3nc3cc(NC(=O)CCN4CCCC4)ccc23)cc1
Data returned: 99.3

* * *

Test system: 435261-313-R-J1-PDC complex spheroid viability
Assay: Anticancer human tumor 435261-313-R-J1-PDC cell line growth inhibition [GQUAD];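 further: spheroids exposed to the agents for seven days before readout; percent of vehicle control viability with DMSO wells as 100%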
Conditions: second compound 3.16 µM; first compound 0.0316 µM; active compounds read low
property: viability, T/C (%)
Reply numerically in %, unit not repeated.

compound: C=CC(=O)N1CCN(c2nc(=O)n(-c3c(C)ccnc3C(C)C)c3nc(-c4c(O)cccc4F)c(F)cc23)C(C)C1 (stereo not given) + Cc1[nH]c2ccc(F)cc2c1-c1nc2c3cccnc3c3ncccc3c2[nH]1
viability, T/C / %: 41.5

Continue with the compound presented below.
Data request: Bench note: what viability, T/C did Cc1cccc(N(C)C(=O)C2C(O)CCN2c2nc(C)cc(C(F)(F)F)c2C#N)c1 (stereo not given) + CN(C)c1ccc(Nc2c3ccc(NC(=O)CCN4CCCC4)cc3nc3cc(NC(=O)CCN4CCCC4)ccc23)cc1 show?
Data returned: 64.3

Data provenance is PubChem BioAssay AID2060494.
